The measured values listed here are drawn from PubChem BioAssay (NCI).

For each of the molecules below, state its TGI.
- Tested on: K-562 leukemia
- assay.name: NCI tumour cell line growth inhibition, 48 h

q: Sample CC(=O)OC1COC(Oc2c(C)c3c4c(c2O)[C@@H](C)CC[C@@H]4[C@@H](C)C[C@H]3C=C(C)C)C(O)C1OC(C)=O (stereo not given in full) — what was its TGI?
a: 32.8 µM

q: Bench note: what TGI did Cc1c(O)ccc2c(O)c(NC(=O)c3ccc4c(c3)CCC(C)(C)O4)c(=O)oc12 show?
a: > 100 µM

q: Param item = c1ccc(-c2nnc(-c3ccccn3)s2)nc1 ; retrieve measured TGI.
a: > 100 µM

q: Which value of TGI has been reported for CCCC(=O)NC(NC1CCCCC1)(C(=O)OCC)C(F)(F)F (stereo not given) in the records?
a: > 100 µM

q: I have this molecule here, O=C1c2ccccc2C(=O)c2c(NCC(O)CO)ccc(NCC(O)CO)c21 (stereo not given) , and I need its recorded TGI.
a: > 100 µM
